pKi: −log10 of the molar value.
Listing of pKi toward Adenosine receptor A2a (Homo sapiens, UniProt P29274), each taken from a published source.
endpoint: pKi

1) CCCn1c(=O)c2[nH]c(-c3ccccc3)cc2n(CCC)c1=O = 6.19
2) COc1ccc(-c2cc3cccc(C)c3oc2=O)cc1OC = 4.59
3) COCC1=CC(O)N=C(Nc2nc(C)c3ccccc3n2)N1 (stereo unspecified) = 6.20
4) Nc1nc(C(=O)NCc2cccc3cccnc23)c2cccc(F)c2n1 = 9.30
5) CCOC(CNC(=O)c1cc2cccc(OC)c2oc1=N)OCC = 5.80
6) CC(=O)Nc1cc(-c2cccc(CC#N)c2)nc(-n2nc(C)cc2C)n1 = 8.70
7) C=CCN1CCC(NC(=O)Nc2nc3nn(C)cc3c3nc(-c4ccco4)nn23)CC1 = 5.85
8) Nc1nc(Cc2cccc(O)c2)nc2cn(-c3ccccc3)nc12 = 6.28
9) Nc1nc(-c2ccco2)c2cnn(Cc3cccc(OCCCCCC(=O)NO)c3)c2n1 = 7.96
10) CC(=O)Nc1cc(N2CCC[C@H]2COc2ccccn2)nc(-n2nc(C)cc2C)n1 = 6.36
11) O=c1c2ncn3nc(-c4ccccc4)cc3c2c(-c2ccsc2)nn1Cc1ccccc1 = 7.16
12) CCN(CC)c1cc(NC(C)=O)nc(-n2nc(C)cc2C)n1 = 7.04
13) Cn1c(=O)c2[nH]c(-c3ccc(OCC(=O)Nc4ccc([N+](=O)[O-])cc4)cc3)cc2n(C)c1=O = 7.09
14) CCCn1c(=O)c2[nH]c3cccnc3c2n(CCC)c1=O = 6.24
15) CCCn1c(=O)c2[nH]c(-c3ccc(OCC(=O)Nc4ccccn4)cc3)cc2n(CCC)c1=O = 6.51
16) CCOc1ccc(CCCn2ncc3c2nc(N)n2nc(-c4ccco4)nc32)cc1 = 7.36
17) Cc1cccc(-c2nnc(NC(=O)C(C)Oc3ccccc3)[nH]2)c1 (stereo unspecified) = 5.70
18) O=c1oc2c(O)cccc2cc1-c1ccccc1 = 4.37
19) CC(C)(C)CC(=O)Nc1ccc(C(=O)Nc2nccs2)cc1F = 8.04
20) CCCn1c(=O)c2[nH]c(-c3ccc(OCC(=O)Nc4ccccc4)cc3)cc2n(C)c1=O = 6.77
21) O=C(Cc1cccc2ccccc12)Nc1nc2nn(CCc3ccccc3)cc2c2nc(-c3ccco3)nn12 = 7.26
22) CCCn1c(Oc2cccnc2C)nc2nc(C3CCCC3)[nH]c2c1=O = 5.70
23) COc1ccc(CC(=O)Nc2cc(-n3cccn3)nc(-c3ccc(C)o3)n2)cc1 = 8.00
24) Nc1nc(N2CCC(CNC(=O)c3cccc(S(N)(=O)=O)c3)CC2)nc2sc(-c3ccco3)nc12 = 7.39
25) CCCn1c(=O)c2[nH]c(-c3ccc(OC(C)C(=O)O)cc3)cc2n(CCC)c1=O (stereo unspecified) = 6.00
26) O=C(COc1ccccc1)Nc1nnc(-c2ccccc2)[nH]1 = 5.74
27) Cn1c(=O)c2[nH]c(-c3ccc(OCC(=O)N4CCN(c5ccccc5Cl)CC4)cc3)cc2n(C)c1=O = 6.45
28) OC[C@H]1O[C@@H](n2cnc3c(N[C@@H]4CCOC4)ncnc32)[C@H](O)[C@@H]1O = 5.64
29) CC(C)C(=O)Nc1nc(-c2ccccc2)c(C#N)c(-c2ccccc2)n1 = 7.45
30) COc1ccccc1Cc1nc(N)c2nn(-c3ccccc3)cc2n1 = 6.67
31) CCCn1c(=O)c2nc(-c3cc(OCC(=O)c4ccc(F)cc4)n(C)n3)[nH]c2n(CCC)c1=O = 6.73
32) Cc1cccc(-n2cc3c(n2)c(NC(=O)c2ccccc2)nc2ccccc23)c1 = 5.54

###

Listing of Ki toward Adenosine receptor A2a (Homo sapiens), each taken from a published source.
endpoint: Ki (µM)

1. Nc1nc2c(cnn2CCN2CCN(c3ccc(F)cc3)CC2)c2nc(-c3ccco3)nn12 = 0.001
2. CCCn1c(=O)c2nc([C@]34CC[C@](C(=O)NCC(=O)OC)(CC3)CC4)[nH]c2n(CCC)c1=O = 0.681
3. CC(C)Nc1nc(NC2CCCCC2)n2nc(-c3ccco3)nc2n1 = 0.397
4. COC[C@H]1CCCN1c1cc(Nc2nccs2)nc(-n2nc(C)cc2C)n1 = 0.0095
5. O=C(c1nnc(NC2CCCC2)c2cc(Cl)c(Cl)cc12)N1CCC(O)CC1 = 20

###

pKi: −log10 of the molar value.
Listing of pKi toward Adenosine receptor A2a (Homo sapiens, UniProt P29274), each taken from a published source.
endpoint: pKi

1. O=C(c1ccc(F)cc1)c1c[nH]c(C(=O)NCCCn2ccnc2)c1 = 5.33
2. CC(C)CCn1cc2c(nc(NC(=O)Cc3ccc(C(F)(F)F)cc3)n3nc(-c4ccco4)nc23)n1 = 8.27
3. Nc1nc(OCCc2c[nH]c3cccc(Br)c23)nc2c1ncn2[C@@H]1O[C@H](CO)[C@@H](O)[C@H]1O = 7.40
4. Cn1cc2c(nc(NC(=O)Nc3cc[n+]([O-])cc3)n3nc(-c4ccco4)nc23)n1 = 6.82
5. CCNc1nc(-c2cccs2)c2sccc2n1 = 6.81
6. Nc1n[nH]c2nc(-c3ccco3)c(-c3ccncn3)cc12 = 6.07
7. Cc1ccc(Nc2nc(C)c(C(=O)Nc3sc4c(c3C#N)CCCC4)s2)cc1 = 5.25
8. CC(=O)Oc1cccc2cc(-c3ccccc3)c(=O)oc12 = 4.45
9. Cc1cc(C)n(-c2cc(NC(=O)CN3CC[C@H](OC(C)C)C3)nc(-c3ccc(C)o3)n2)n1 = 7.07
10. Nc1nc(SCCN2CCN(c3ccc(F)cc3F)CC2)cc2nc(-c3ccco3)nn12 = 8.85
11. CC(C)CCn1cc2c(nc(NC(=O)COc3ccccc3)n3nc(-c4ccco4)nc23)n1 = 7.42
12. c1ccc2nc(-c3nc4ccccc4[nH]3)cnc2c1 = 6.25
13. N#Cc1c(-c2ccccc2)nc(NC(=O)C2CCCC2)nc1-c1ccc2c(c1)OCO2 = 7.57
14. Nc1nc(C(=O)NCc2ccccc2)c2cccc(F)c2n1 = 8.27
15. Nc1nc(OCCc2cccc(F)c2)nc2c1ncn2[C@@H]1O[C@H](CO)[C@@H](O)[C@H]1O = 7.16
16. Nc1nc(NCCc2ccccc2)nc2sc(-c3ccco3)nc12 = 7.52

###

pKi: −log10 of the molar value.
Listing of pKi toward Adenosine receptor A2a (Homo sapiens), each taken from a published source.
endpoint: pKi

1) Nc1nc2c(cnn2CCN2CCN(c3ccc(F)c(F)c3F)CC2)c2nc(-c3ccco3)nn12 = 9.22
2) CCCn1c(=O)c2[nH]c(-c3ccc(OCC(=O)N4CCC(c5ccccc5)(c5ccccc5)CC4)cc3)cc2n(CCC)c1=O = 5.98
3) CCOC(=O)COc1ccc(-c2cc3c([nH]2)c(=O)n(C)c(=O)n3CCCOC)cc1 = 5.73
4) COc1ccc(CCN(C)c2cc3nc(-c4ccco4)nn3c(N)n2)cc1 = 8.74
5) CN(Cc1ccccc1)C(=O)COc1ccc(-c2cc3c([nH]2)c(=O)n(C)c(=O)n3C)cc1 = 5.99

###

Listing of log10 of Ki toward Adenosine receptor A2a (Homo sapiens), each taken from a published source.
endpoint: log10 of Ki (log10 of the value in nM)

1. CCCn1c(=O)c2nc(-c3cnn(CCCc4ccccc4)c3)[nH]c2n(CCC)c1=O = 2.34
2. Cn1ncc2nc(N)n3nc(-c4ccco4)nc3c21 = 0.56
3. Nc1nc(OCCc2c[nH]c3ccc(O)cc23)nc2c1ncn2[C@@H]1O[C@H](CO)[C@@H](O)[C@H]1O = 2.65
4. Nc1nc2c(cnn2CCN2CCN(c3ccc(F)cc3F)CC2)c2nc(-c3ccco3)nn12 = -0.22
5. CCCn1c(=O)c2[nH]c(-c3ccc(OCC(=O)Nc4ccc(OC(F)(F)F)cc4)cc3)cc2n(CCC)c1=O = 2.03

###

pKi: −log10 of the molar value.
Listing of pKi toward Adenosine receptor A2a (Homo sapiens, UniProt P29274), each taken from a published source.
endpoint: pKi

1) CCOC(=O)[C@H](Cc1ccc(O)cc1)Nc1nc2nn(C)cc2c2nc(-c3ccco3)nn12 = 5.89
2) CCCn1c(=O)c2[nH]c(-c3ccc(OCC(=O)O)cc3)c(Cl)c2n(CCC)c1=O = 6.40
3) CCC(=O)Nc1cc(-c2ccccc2)nc(-c2ccccc2)n1 = 7.07
4) CCOCc1sc(NC(=O)c2ccco2)nc1-c1ccccc1 = 6.72
5) Cn1c(=O)c2[nH]c(-c3ccc(OCC(=O)NC4CCCC4)cc3)cc2n(C)c1=O = 6.16
6) CCCn1c(=O)c2[nH]c(-c3cnn(CC4CCN(c5ccc(OC(F)(F)F)cc5)C4=O)c3)nc2n(CCC)c1=O (stereo not given) = 7.44
7) Nc1nc(NCc2ccc(C(=O)NO)cc2)nc2nc(-c3ccco3)nn12 = 7.07
